- Test Description: qHTS Assay for inhibitors of the human cytomegalovirus (HCMV); further: on the % scale 0 is the no-effect control and ±100 the full control effect
- Assay Setup: HFF cells, HCMV-luciferase reporter, 72 h; at 57.5 µM; hits give low values
Screen size: about 410,000 compounds; about 18,000 (4.4%) were called active. Not shown: some 7% with an inconclusive outcome. Many of the other results were omitted from the sample, so actives are more common in it than they were.
Readout: activity change, negative = inhibition (%)
All answers are understood in %, so give the number only.

The cases that follow already have their activity change, negative = inhibition on record.
CCOC(=O)C(C)n1cnc2scc(-c3ccc(C)c(C)c3)c2c1=O (centres undefined); -39.3
COc1ccc(NC(=O)c2cc3cc(C)ccc3n2C)cc1; 5.58
O=C(NCc1ccccc1)C1=C[C@@H](C2CCCCC2)C[C@@H](OCc2ccc(CO)cc2)O1; -86.3

Input: State its activity change, negative = inhibition for this compound: "Cc1cc(C)c(NC(=O)Cn2c(SCC(=O)NCc3ccccc3)nc3ccccc32)c(C)c1"
Output: -0.705

Input: Indicate its recorded activity change, negative = inhibition; the compound in question is COc1cc(OC)c(C2C=C(C(=O)O)Nc3ncnn32)cc1OC (centres undefined)
Output: 6.4

* * *

- Test Description: qHTS Assay for inhibitors of the human cytomegalovirus (HCMV); further: on the % scale 0 is the no-effect control and ±100 the full control effect
- Assay Setup: HFF cells, HCMV-luciferase reporter, 72 h; at 57.5 µM
The campaign covered roughly 410,000 compounds. About 18,000 (4.4%) were called active. Inconclusive results (about 7%) are left out. Cut-off read from the data, not from the text of the source: active = activity change below about -60%; inconclusive = no clear call, values can overlap the other calls; inactive = above about -39%. The full list was thinned out, with actives kept by preference.
Response enum: True = active, False = inactive

Use these answered entries as a reference point.
Cc1cc(C)nc(NS(=O)(=O)c2ccc(NC(=O)c3cc(=O)c4ccc(C)c(C)c4o3)cc2)n1; False
CC(NCC(=O)Nc1ccccc1C(=O)NC1CC1)c1ccccc1Cl (configuration not stated); True
O=C(CSc1nccn1Cc1ccc(Cl)cc1)NCc1ccccc1; False
COc1cccc2c1C(=O)c1c(O)c3c(c(O)c1C2=O)CC(O)(C(C)=NNC(=O)c1ccc(Cl)c(Cl)c1)CC3OC1CC(N)C(O)C(C)O1 (configuration not stated); True
CCN1CCN(C(=O)CN(C)S(=O)(=O)c2ccc3ccccc3c2)CC1; False
O=C(NCCN1CCN(Cc2ccccc2)CC1)c1cc2c(=O)[nH]c3ccccc3c2s1; False

Now look at this one.
Input: So what was the verdict on CCOC(=O)C1CCCN(C(=O)c2sc3nc(C)nc(N4CCOCC4)c3c2C)C1 (configuration not stated) in this test?
Output: False

* * *

- Test Description: qHTS Assay for inhibitors of the human cytomegalovirus (HCMV); further: on the % scale 0 is the no-effect control and ±100 the full control effect
- Assay Setup: HFF cells, HCMV-luciferase reporter, 72 h; at 57.5 µM; hits give low values
Screen size: about 410,000 compounds; about 18,000 (4.4%) were called active. Inconclusive results (about 7%) are left out. The entries come from a sample that favours actives as a whole.
Examples of compounds with documented activity change, negative = inhibition follow.
Return type: number; implicit unit %.

A selection of reference data follows.
O=c1[nH]c(=O)n(CCc2ccc(F)cc2)c(O)c1/C=N/N1CCCCC1; -4.21
CCOC(=O)c1c(NC(=O)C2CCN(S(=O)(=O)c3ccc(Cl)cc3)CC2)sc2c1CCCC2; -10.4
O=C(NCCc1ccccc1)C(=O)NCC(c1ccco1)S(=O)(=O)c1ccccc1 (stereo not drawn); -21.8
Cc1nc(-c2ccccc2C(C)C)nc(NCc2ccc(-c3cccnc3)cc2)c1C; 28
CCOc1ccccc1C(=O)NC1(C(F)(F)F)NC(=O)N(CCc2ccc(OC)c(OC)c2)C1=O (stereo not drawn); -4.49

Input: Indicate the recorded activity change, negative = inhibition value for this compound: "Cc1ccc(S(=O)(=O)N(C)C)cc1NC(=O)c1ccccc1Br"
Output: -5.46

Input: Supply activity change, negative = inhibition value. Item: "CCCn1nnnc1NCc1ccc(OC)cc1"
Output: -30.2

Input: Kindly indicate its recorded activity change, negative = inhibition. Item: "COc1ccc(CNc2c(CO)cnc3c2cnn3C)cc1"
Output: -66.6

Input: Look up activity change, negative = inhibition of CC(Oc1ccc(Cl)cc1)C(=O)Nc1ncccn1 (stereo not drawn) and report it.
Output: -1.17

Input: Identify activity change, negative = inhibition associated with the compound "Cc1c(CC(=O)NCC(=O)NCC(=O)O)c(=O)oc2cc3oc4c(c3cc12)CCCC4"
Output: -60.9

* * *

- Test Description: qHTS Assay for inhibitors of the human cytomegalovirus (HCMV); further: on the % scale 0 is the no-effect control and ±100 the full control effect
- Assay Setup: HFF cells, HCMV-luciferase reporter, 72 h; at 57.5 µM
Hit rate of the full screen: of about 410,000 compounds, about 18,000 (4.4%) were called active. About 7% were inconclusive and are not listed. Rule as the data show it: active = activity change below about -60%; inconclusive = no clear call, values can overlap the other calls; inactive = above about -39%. Shown is part of a subset that was picked to be rich in actives.
Permitted responses: t for active, f for inactive

Cc1sc(C2C(C#N)=C(N)N(c3cccc(Cl)c3)C3=C2C(=O)CCC3)cc1CN1CCOCC1 (stereo not given); f

Input: Please share the test call associated with "O=C(O)c1c(CNCc2cccc(F)c2)c2ccccc2n1Cc1ccccc1" .
Output: f

Input: Query: recorded result category for "CCOC(=O)c1c(NC(=O)CCl)sc(C(=O)N(CC)CC)c1C" in this test
Output: t

Input: Test call for this compound, please: "CCOc1ccc(CNC(=O)c2ccc3c(c2)nnn3C2CCCC2)cc1"
Output: f

Input: # lookup: test call for CC(=O)NC(Cc1ccc(F)c(F)c1)C(=O)NC1CCN(c2nnnn2-c2ccccc2)CC1 (stereo not given)
Output: f

Input: # outcome recorded in this test, key = "CC(C)Oc1ccc(S(=O)(=O)N2CCOCC2)cc1NC(=O)C1CCCC1"
Output: f

Input: Just curious, what result did COC1C(O)C(C)OC(OC2CCC3(C=O)C(CCC4C3CCC3(C)C(C5=CC(=O)OC5)CCC43O)C2)C1O (stereo not given) get here?
Output: t

Input: GET /call?item= "Cc1cccc(CSc2nc3ccncc3n2CC(=O)N(C)C2CCCCC2)c1" returns the recorded outcome of this test.
Output: f

Input: Would you mind telling me which call this test gave "CCOC(=O)c1c(NC(=O)COC(=O)c2ccc(S(=O)(=O)C(F)F)cc2)sc(C(=O)N(C)C)c1C" ?
Output: f

Input: Assay result, entry "Cc1cc(F)ccc1NC1(c2ccccc2)C(=O)c2ccccc2C1=O" — outcome?
Output: f

* * *

The entries below are paired with their reported activity change, negative = inhibition.
- Test Description: qHTS Assay for inhibitors of the human cytomegalovirus (HCMV); further: on the % scale 0 is the no-effect control and ±100 the full control effect
- Assay Setup: HFF cells, HCMV-luciferase reporter, 72 h; at 57.5 µM; hits give low values
About 18,000 (4.4%) of roughly 410,000 compounds were called active. Roughly 7% stayed inconclusive and do not appear here. Only a selection was taken, and actives are over-represented in it overall.
Write the answer as a number in %, unit excluded.

COc1ccc(Cc2n[nH]c(=S)n2NC(=O)Nc2ccc(C)cc2)cc1; 4.71
CCN(CCCNC(=O)c1c(C)oc2ncn(CC(C)C)c(=O)c12)Cc1ccccc1; -5.33
O=C(CC(c1cccs1)N1Cc2ccccc2C1=O)Nc1ccc(F)cc1F (stereo not given); 5.86
COc1ccc(CC(=O)Nc2ccc(-c3nc4ccccc4s3)c(C)c2)cc1; 52.5
O=C(Nc1ccc(CSc2ccccc2)cc1)c1ccc(CN2CCOCC2)cc1; -79.7

Input: Name the recorded activity change, negative = inhibition of the item CCOc1ccc(/C(O)=C2/C(=O)C(=O)N(Cc3cccnc3)C2c2ccc(N(C)C)cc2)c(C)c1 (stereo not given) in your answer.
Output: 19.8

Input: Read the entry CCOC(=O)Nc1ccc2c(c1)N(C(=O)CN1CCN3CCCC3C1)c1ccccc1CC2 (stereo not given) and write its reported activity change, negative = inhibition.
Output: 74.9

Input: Please give the documented activity change, negative = inhibition of "CCOCCN(C=O)c1cccc(OC)c1"
Output: 18

Input: Please look at this compound and report its activity change, negative = inhibition: "COc1ccc2c(c1)CCc1c(C(=O)Nc3cc(C)ccc3O)noc1-2"
Output: -8.9

Input: Give activity change, negative = inhibition for "CCOc1cccc(=NC2CCCCC2)c2c(C)[nH]c(C)c12"
Output: -110

* * *

Quick reference for activity change, negative = inhibition among some molecules
- Test Description: qHTS Assay for inhibitors of the human cytomegalovirus (HCMV); further: on the % scale 0 is the no-effect control and ±100 the full control effect
- Assay Setup: HFF cells, HCMV-luciferase reporter, 72 h; at 57.5 µM; hits give low values
- Experimental: NCGC Assay Overview: Infection with human cytomegalovirus (HCMV) continues to pose significant threats for pregnant women and immunocompromised hosts. […] This is a cell-based assay for HCMV inhibition in HFFs cells. […] At 72 h post infection cell lysates were collected and luciferase activity was determined using the Glomax-Multi + Detection System (Promega, Madison, WI). […]
In all, about 410,000 compounds went through this assay and about 18,000 (4.4%) were called active. Not shown: some 7% with an inconclusive outcome. Only a selection was taken, and actives are over-represented in it overall.

Input: Note down activity change, negative = inhibition recorded for "Cc1ccc(NC(=O)CSc2nc3c([nH]c4ccccc43)c(=O)n2-c2ccccc2)c(C)c1"
Output: -65.4% (active)

Input: Report activity change, negative = inhibition for CCOC(=O)c1ccc(NC(=O)C2CC(=O)NC(=Nc3ccc(C)c(C)c3)S2)cc1 (stereo not given)
Output: -14.2% (inactive)

Input: Return reported activity change, negative = inhibition. Input molecule: "Cc1ccc(C)n1-c1nnc(N2CCC(C(=O)NCc3ccc(F)cc3)CC2)s1"
Output: 29.6% (inactive)

Input: Identify measured activity change, negative = inhibition corresponding to "Cc1ccc(/C=C(\C#N)C(=O)Nc2cc(C)ccc2C)cc1"
Output: -15.9% (inactive)

Input: Give the value of activity change, negative = inhibition reported for the following: "CN(C)c1cccc(C(=O)Nc2nc3ccc(S(=O)(=O)NC(C)(C)C)cc3s2)c1"
Output: -29.3% (inactive)

Input: # return recorded activity change, negative = inhibition for input "COC(=O)c1cc(NC(=O)c2nn(C)c(=O)c3ccccc23)cc(C(=O)OC)c1"
Output: -10.5% (inactive)

Input: State, in one line, measured activity change, negative = inhibition of Cc1cccc(N2CCN(C(=O)c3cc4c(=O)oc5ccccc5c4s3)CC2C)c1 (stereo not given)
Output: 1.15% (inactive)

Source: PubChem BioAssay AID1259415
